# test target: ErbB2 (Homo sapiens)
# Sequence (P04626 23-1255): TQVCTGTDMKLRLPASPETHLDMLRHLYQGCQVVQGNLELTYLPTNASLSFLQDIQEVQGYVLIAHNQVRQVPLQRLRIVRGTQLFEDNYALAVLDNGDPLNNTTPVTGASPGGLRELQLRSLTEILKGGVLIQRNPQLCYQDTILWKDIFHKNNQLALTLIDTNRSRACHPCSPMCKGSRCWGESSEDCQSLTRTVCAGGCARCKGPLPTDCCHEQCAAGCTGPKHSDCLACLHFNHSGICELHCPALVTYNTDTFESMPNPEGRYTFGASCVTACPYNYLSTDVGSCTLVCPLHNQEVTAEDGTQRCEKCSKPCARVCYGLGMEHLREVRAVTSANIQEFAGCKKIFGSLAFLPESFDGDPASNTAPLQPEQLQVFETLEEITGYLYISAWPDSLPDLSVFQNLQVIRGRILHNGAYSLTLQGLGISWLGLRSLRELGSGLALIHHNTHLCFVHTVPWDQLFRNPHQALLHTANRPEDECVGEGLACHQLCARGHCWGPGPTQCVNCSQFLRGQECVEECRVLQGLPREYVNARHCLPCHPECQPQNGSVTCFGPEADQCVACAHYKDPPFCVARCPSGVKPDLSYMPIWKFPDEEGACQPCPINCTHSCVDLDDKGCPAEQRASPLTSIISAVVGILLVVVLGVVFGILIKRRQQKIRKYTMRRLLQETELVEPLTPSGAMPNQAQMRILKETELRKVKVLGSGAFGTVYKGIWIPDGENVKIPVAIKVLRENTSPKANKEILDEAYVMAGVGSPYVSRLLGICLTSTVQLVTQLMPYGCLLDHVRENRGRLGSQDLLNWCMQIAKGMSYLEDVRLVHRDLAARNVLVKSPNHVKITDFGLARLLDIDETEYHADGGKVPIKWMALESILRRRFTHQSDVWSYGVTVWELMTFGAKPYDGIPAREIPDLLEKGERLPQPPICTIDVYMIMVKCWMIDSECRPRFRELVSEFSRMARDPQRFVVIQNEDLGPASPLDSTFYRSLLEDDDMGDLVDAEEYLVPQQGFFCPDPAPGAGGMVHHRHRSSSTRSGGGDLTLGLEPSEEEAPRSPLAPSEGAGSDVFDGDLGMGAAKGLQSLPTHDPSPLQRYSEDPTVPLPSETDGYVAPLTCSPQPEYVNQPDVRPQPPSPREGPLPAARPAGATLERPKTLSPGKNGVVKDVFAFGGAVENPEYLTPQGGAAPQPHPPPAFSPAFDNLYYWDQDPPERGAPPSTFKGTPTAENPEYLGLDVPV
# procedure summary: ErbB2 phosphorylation in SKBR3 cells, dot blot (4G10)
# Format: cell-based
# Parameters: endogenous in cells; host or cells: SKBR3
# condition notes: SK-BR-3; SKBR3, 24 h, 0.625-80 μM; read-out: ErbB2 activation 24 h Max inhibition, %
# Method: The ability of ZU and EB1 and their derivatives to inhibit ErbB2 activity in cellulo on a commonly used ErbB2-overexpressing breast cancer cell line SKBR3 was analyzed. SKBR3 were treated 24 h with increasing concentrations of the compounds (0.625-80 μM) and ErbB2 phosphorylation was addressed by dot blot analysis using an anti-phosphotyrosine antibody (clone 4G10). Quantifications show the result of two independent experiments.
measured property: Emax (%)
Record the value in %, omitting the unit from your answer.

Summary: O=C(O)C1CCN(CCC=C2c3ccccc3Oc3ccccc32)CC1 , ErbB2 (Homo sapiens), Emax = 0

Summary: NCCN1CCN(CC/C=C2/c3ccccc3Sc3ccc(C(F)(F)F)cc32)CC1 , ErbB2 (Homo sapiens), Emax = 90.8

Summary: CN1CCN(CC/C=C2/c3ccccc3Sc3ccc(S(=O)(=O)N(C)C)cc32)CC1 , ErbB2 (Homo sapiens), Emax = 74.2

Summary: CC(=O)OCCN1CCN(CC/C=C2/c3ccccc3Sc3ccc(Cl)cc32)CC1 , ErbB2 (Homo sapiens), Emax = 97.5

Summary: O=C(O)C1CCN(CCC=C2c3ccccc3Sc3ccccc32)CC1 , ErbB2 (Homo sapiens), Emax = 0
